Target entity: Cytochrome P450 2C19 (Homo sapiens)
Sequence (P33261 whole entry): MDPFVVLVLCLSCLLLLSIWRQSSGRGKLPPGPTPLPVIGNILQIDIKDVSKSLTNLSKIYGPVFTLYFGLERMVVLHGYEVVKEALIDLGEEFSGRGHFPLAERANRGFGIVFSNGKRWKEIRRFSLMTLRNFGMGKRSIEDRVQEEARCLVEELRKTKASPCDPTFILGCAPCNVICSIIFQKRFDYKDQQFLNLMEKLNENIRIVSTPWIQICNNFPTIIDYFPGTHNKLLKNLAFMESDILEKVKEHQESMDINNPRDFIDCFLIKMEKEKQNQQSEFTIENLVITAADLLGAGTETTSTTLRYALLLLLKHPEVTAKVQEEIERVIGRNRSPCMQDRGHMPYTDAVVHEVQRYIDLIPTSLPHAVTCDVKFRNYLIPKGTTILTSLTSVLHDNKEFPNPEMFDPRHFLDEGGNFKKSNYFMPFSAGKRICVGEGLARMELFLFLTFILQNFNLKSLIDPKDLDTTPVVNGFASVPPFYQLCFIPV
Parameter measured: IC50

In: What measured IC50 is associated with COC(=O)Nc1cc(-c2ccc(OC[C@@](C)(N)CC(C)C)c(C)n2)ccn1 on Cytochrome P450 2C19 (Homo sapiens)?
Out: > 20 µM

* * *

Procedure details: Drug concentration in rat spinal cord at 3 mg/kg, po measured after 4 hrs
Format: ADME, organism-based
Run conditions: read-out: Ct
Parameter measured: concentration at 4 h (nM)
The reply should contain only the number, in nM.

In: What does the record list as concentration at 4 h for CC(C)C[C@](C)(N)COc1cnc(-c2ccnc(C(F)F)c2)cc1C(F)F ?
Out: 825

* * *

Recorded remaining at 10 min, 0.5 µM values for a group of molecules are listed next.
Procedure details: Metabolic stability in human liver microsomes assessed as parent compound remaining at 0.5 uM incubated for 10 mins in presence of NADPH by LC-MS/MS analysis
Type: ADME, Microsome
Run conditions: read-out: Stability
Number in %, nothing else.

| Molecule | Parameter measured | Recorded measurement |
| --- | --- | --- |
| Cc1cc(-c2cc(Cl)c(OC[C@@](C)(N)CC(C)C)cn2)ccn1 | remaining at 10 min, 0.5 µM | 86 |
| COC(=O)Nc1cc(-c2ccc(OC[C@@](C)(N)CC(C)C)c(C)c2)ccn1 (racemic) | remaining at 10 min, 0.5 µM | 98 |
| COC(=O)Nc1cc(-c2ccc(OC[C@@](C)(N)CC(C)C)c(OC(F)(F)F)c2)ccn1 | remaining at 10 min, 0.5 µM | 81 |

In: Quick one: remaining at 10 min, 0.5 µM for COC(=O)Nc1cc(-c2ccc(OC[C@@](C)(N)CC(C)C)c(F)c2)ccn1 ?
Out: 82

In: May I ask what remaining at 10 min, 0.5 µM has been recorded for CC(=O)Nc1cc(-c2ccc(OC[C@@H](N)CC(C)C)c(Cl)c2)ccn1 ?
Out: 89

In: Need remaining at 10 min, 0.5 µM of CC(C)C[C@](C)(N)COc1cnc(-c2ccnc(Cl)c2)cc1C(F)F , thanks.
Out: 92

In: Record request: remaining at 10 min, 0.5 µM value, item COC(=O)Nc1cc(-c2cnc(OC[C@@](C)(N)CC(C)C)c(C)c2)ccn1
Out: 92

In: Recorded remaining at 10 min, 0.5 µM for CC(=O)Nc1cc(-c2ccc(OC[C@@](C)(N)CC(C)C)c(C#N)c2)ccn1 , please?
Out: 64

In: Entry under review: CC(=O)Nc1cc(-c2ccc(OC[C@@](C)(N)CC(C)C)c(C(F)(F)F)c2)ccn1 . Reported remaining at 10 min, 0.5 µM?
Out: 66

In: Consider the molecule shown here: Cc1cc(-c2cc(C)c(OC[C@@](C)(N)CC(C)C)cn2)ccn1 What is its recorded remaining at 10 min, 0.5 µM?
Out: 79

In: Which remaining at 10 min, 0.5 µM reading was recorded for the molecule COc1cc(-c2ccnc(NC(C)=O)c2)ccc1OC[C@@H](N)CC(C)C ?
Out: 96

In: Please look up its remaining at 10 min, 0.5 µM: CC(=O)Nc1cc(-c2ccc(OC[C@@](C)(N)CC(C)C)c(OC(F)(F)F)c2)ccn1
Out: 54

* * *

Target entity: 5-hydroxytryptamine receptor 2B (Homo sapiens, UniProt P41595)
Sequence (P41595 whole entry): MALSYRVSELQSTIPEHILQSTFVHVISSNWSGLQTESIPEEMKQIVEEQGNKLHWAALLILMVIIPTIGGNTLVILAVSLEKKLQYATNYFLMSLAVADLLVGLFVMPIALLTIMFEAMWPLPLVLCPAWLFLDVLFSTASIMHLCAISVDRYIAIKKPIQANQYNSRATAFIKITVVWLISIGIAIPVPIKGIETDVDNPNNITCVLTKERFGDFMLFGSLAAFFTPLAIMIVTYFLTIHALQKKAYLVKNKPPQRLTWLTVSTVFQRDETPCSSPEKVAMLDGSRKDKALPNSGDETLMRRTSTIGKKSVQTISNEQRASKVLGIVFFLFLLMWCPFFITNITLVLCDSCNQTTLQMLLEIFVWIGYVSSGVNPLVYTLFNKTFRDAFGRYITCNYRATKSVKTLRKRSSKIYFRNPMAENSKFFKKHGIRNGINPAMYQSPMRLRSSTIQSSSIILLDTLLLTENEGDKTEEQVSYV
Procedure details: Inhibition of 5HT2B receptor (unknown origin)
Format: toxicity
Parameter measured: IC50 (nM)
The figure you give is taken to be in nM; do not add the unit.

In: Consider the molecule COC(=O)Nc1cc(-c2ccc(OC[C@@](C)(N)CC(C)C)c(C)n2)ccn1 and give its measured IC50.
Out: 540
